compounds and their reported melting point

# compound, melting point
data = [
    ("O=C(c1ccc(Br)cc1)C1C(c2cc3ccccc3o2)C2CSCN2[C@@]12C(=O)Nc1ccc(Br)cc12 (stereo partly drawn) [Compound 5h]", "118 to 120 °C"),
    ("O=C(c1ccc(Cl)cc1)C1C(c2cc3ccccc3o2)C2C3CCCCC3CN2[C@@]12C(=O)Nc1ccc(Cl)cc12 (stereo partly drawn) [Compound 5o]", "125 to 126 °C"),
    ("O=C(c1ccc(Br)cc1)C1C(c2cc3ccccc3o2)C2C3CCCCC3CN2[C@@]12C(=O)Nc1ccc(Cl)cc12 (stereo partly drawn) [Compound 5f]", "120 to 121 °C"),
    ("O=C(c1ccc(F)cc1)C1C(c2cc3ccccc3o2)C2C3CCCCC3CN2[C@@]12C(=O)Nc1ccccc12 (stereo partly drawn) [Compound 5m]", "137 to 138 °C"),
    ("O=C(c1ccc(F)cc1)C1C(c2cc3ccccc3o2)C2C3CCCCC3CN2[C@@]12C(=O)Nc1ccc(Cl)cc12 (stereo partly drawn) [Compound 5d]", "125 to 127 °C"),
    ("O=C(c1ccc(Br)cc1)C1C(c2cc3ccccc3o2)C2CSCN2[C@@]12C(=O)Nc1ccc(Cl)cc12 (stereo partly drawn) [Compound 5i]", "144 to 145 °C"),
]
